system: HCC-2998 colon; assay: NCI tumour cell line growth inhibition, 48 h; in the data active = GI50 below about 0.43 µM; inactive = the rest
One label from this list, please: T = active, F = inactive

Ask: I'd appreciate the recorded outcome for "O=C1/C(=C/c2ccccc2[N+](=O)[O-])COc2ccc(O)cc21" from this test.
Reply: F

Ask: Recorded test call requested for "COC1=C(OC)C(=O)C(CCCCCCCCCCO)=C(C)C1=O"
Reply: F

Ask: Dear all, I need the recorded test outcome for "COCCOCCOCCOCCOC(=O)OC[n+]1ccc(NC(=NCCCCCCOc2ccc(Cl)cc2)NC#N)cc1" , thank you.
Reply: F

Ask: So what was the verdict on "O=S(=O)(NCCCNc1cc(-c2cn(-c3ccccc3)nc2-c2cccc(O)c2)ccn1)c1ccc(F)cc1" in this test?
Reply: F

Ask: # fetch the recorded call for C=CC[N+]1(CC)CCN=C1CCCCCCCCCCCCCCCCC (configuration not stated) here
Reply: T

Ask: Called result for "Fc1ccc2nc(-c3nc(-c4ccccc4)n4ccccc34)[nH]c2c1"
Reply: F

Ask: # fetch the recorded call for "CC(=O)N(O)c1ccc(/C=C/c2ccccc2)cc1" here
Reply: F

Ask: Please let me know the test result on file for "c1ccc2c(CNCCN3CCNCC3)c3ccccc3c(CNCCN3CCNCC3)c2c1" .
Reply: F

Ask: Identify the outcome logged in this assay for the compound shown: "COC1=C(OC)[C@]2(OC)c3c(O)c(OC)c4c(c3O[C@@]23O[C@@H](c2ccccc2)CC=C3C1=O)[C@@H](OC)C[C@H](c1ccccc1)O4"
Reply: F

Ask: I'd appreciate the recorded outcome for "COc1ccc(-c2[nH]c3ccccc3c2/C=C(\C#N)S(=O)(=O)c2ccccc2)cc1" from this test.
Reply: F

Ask: Outcome logged for "CN(C)CCCn1c2c(c3cc4c(cc3c1=O)OCO4)C(=O)c1ccccc1-2" in this assay:
Reply: T

Ask: Would you mind telling me which call this test gave "CCn1ccnc1C(=O)/C=C/c1ccc(CC(=O)Nc2ccc(F)cc2)cc1" ?
Reply: F

Ask: Please share the test call associated with "COc1ccc(/C=N\Nc2nc(SCC(C)C)nc(-c3ccc(OC)cc3)c2C#N)cc1" .
Reply: F

Ask: Recorded call for "C[C@@H](NC(=O)c1ccc(F)cc1)c1ccc2c(c1)CCN2C(=O)C1CCOCC1" ?
Reply: F

Ask: Called result for CC1SC(c2ccc(Cl)cc2)N(CCc2cccs2)C1=O (configuration not stated)
Reply: F

Ask: Call for entry "COc1ccc(-c2c3c(N)c4c(nc3nc3c2c(C)nn3-c2ccccc2)CCCC4)cc1" :
Reply: F

Ask: Check the results log: what was the call for "COC(=O)c1cc([N+](=O)[O-])cc([N+](=O)[O-])c1Cl" ?
Reply: F

====

system: NCI-H460 lung; experiment: NCI tumour cell line growth inhibition, 48 h
endpoint: TGI (µM)
# output: bare number, implied unit µM

Ask: Which TGI value is on record for "C=CC(=O)N[C@@H](/C=C/C(=O)OCC)Cc1ccc(-c2cc(Cl)cc(Cl)c2)cc1" ?
Reply: 32.8

Ask: Which value of TGI has been reported for "CNC(=O)N1N[C@H](c2ccccc2)[C@@H]1c1ccccc1" in the records?
Reply: 53.4

Ask: Form field: reported TGI of "COc1ccc2nc3cc(Cl)ccc3c(N3CCN(c4ccnc(N5CCN(C)CC5)n4)CC3)c2c1"
Reply: 5.43

Source: PubChem BioAssay (NCI)
